# assayExplanation: Inhibition of HIV1 gp41 by metallopeptide-based fluorescence assay using dose response study
# Design: species or system Human immunodeficiency virus 1
observationType: Ki (nM)

| inputSmiles | Ki [nM] |
| --- | --- |
| O=C(O)c1ccc(NC(=O)c2cccc(Cc3ccc(F)cc3)c2)c(Cc2cccc([N+](=O)[O-])c2)c1 | 1340 |
| O=C(O)c1ccc(NC(=O)c2cccc(Cc3cccc4cccnc34)c2)c(Cc2cccc(F)c2)c1 | 1510 |

The origin of these recorded values is ChEMBL document CHEMBL1150796.
